Data origin, for the record: PubChem BioAssay AID1159580

Test: chemical genetic growth profiling, strain panel (AID 1159580);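 further: tested at 20 µM; growth read once vehicle control cultures reached saturation at 30 °C; 1 = growth at the plate median or of vehicle wells; lower values mean less growth of the strain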
Conditions: S. cerevisiae deletion strains, growth OD, locus YHR142W, strain chs7
Among all 5,500 compounds or so, about 2,000 (36%) were called active. Another 18% or so got no clear call; they are omitted. No stated cut-off is given here; in the data, active means normalized growth mostly below about 0.91 (no sharp cut-off); inconclusive means no clear call, values can overlap the other calls; inactive means mostly above about 0.92. This is one part of the list.
A correct response names exactly one class from active, inactive

Please review the entries below; each comes with its answer.
{"COMPOUND": "C=NC(C(=O)NC1C(=O)N2C1SC(C)(C)C2C(=O)O)c1ccccc1 (configuration not stated)", "QUALITATIVE_LABEL": "inactive"}
{"COMPOUND": "O=C(O)C1CCCNC1 (configuration not stated)", "QUALITATIVE_LABEL": "inactive"}
{"COMPOUND": "COc1ccc(CCC(=O)c2c(O)cc(O[C@@H]3O[C@H](CO)C(O)[C@H](O)C3O[C@@H]3O[C@@H](C)[C@H](O)[C@@H](O)[C@H]3O)cc2O)cc1O (some centres not stated)", "QUALITATIVE_LABEL": "inactive"}

Query compound follows.
Exercise: Test call, this compound: `C1N2CN3CN1CN(C2)C3`
Key: inactive

====

Test: chemical genetic growth profiling, strain panel (AID 1159580)
Conditions: S. cerevisiae deletion strains, growth OD, locus YMR001C, strain CDC5, hits give low values
Hit rate of the full screen: of about 5,500 compounds, about 2,000 (36%) were called active. Inconclusive results (about 18%) are left out. The list shows a part of the results.
Kindly state normalized growth for each of the entries shown.
Answers are plain numbers.

Example results:
{"COMPOUND": "CC1CCC(C(C)C)C(N(Cc2ccccc2)C(=O)c2ccccc2)C1 (configuration not stated)", "normalized growth": 0.992}
{"COMPOUND": "CC1=CC(=O)N(c2ccc(F)c(Cl)c2)C1=O", "normalized growth": 0.962}
{"COMPOUND": "N#CC(C#N)=Cc1c(-c2ccccc2Cl)[nH]c2ccccc12", "normalized growth": 0.969}
{"COMPOUND": "O=S(=O)(NCc1cc(Cl)cc(Cl)c1)c1cc(C(F)(F)F)cc(C(F)(F)F)c1", "normalized growth": 0.996}
{"COMPOUND": "O=C(Nc1cc(Cl)ccc1O)c1ccccc1CSc1ccc(Cl)cc1", "normalized growth": 0.981}
{"COMPOUND": "N#Cc1cccc(CSc2nc3ccc(C(F)(F)F)cc3[nH]2)c1", "normalized growth": 0.971}

Next item in the queue.
Exercise: Find the recorded normalized growth belonging to `FC(F)(F)c1cc(NC(=S)SCCSC(=S)Nc2cc(C(F)(F)F)cc(C(F)(F)F)c2)cc(C(F)(F)F)c1` and report it.
Key: 0.997

====

Assay: chemical genetic growth profiling, strain panel (AID 1159580);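 further: tested at 20 µM; growth read once vehicle control cultures reached saturation at 30 °C; 1 = growth at the plate median or of vehicle wells; lower values mean less growth of the strain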
Details: S. cerevisiae deletion strains, growth OD, locus YLR262C, strain YPT6 (second series), hits give low values
The campaign covered roughly 5,500 compounds. About 2,000 (36%) were called active. Inconclusive results (about 18%) are left out. The list shows a part of the results.
Kindly state normalized growth for each of the entries shown.
Answers are plain numbers.

Example results:
{"MOLECULE": "CC(C)(S)[C@@H](N)C(=O)O", "TEST_RESULT": 1.02}
{"MOLECULE": "COc1ccc2c(c1)OCC(Cc1ccc(OC)c(O)c1)C2=O (stereo not drawn)", "TEST_RESULT": 0.985}
{"MOLECULE": "NC(=O)CS(=O)C(c1ccccc1)c1ccccc1 (stereo not drawn)", "TEST_RESULT": 1.01}
{"MOLECULE": "COC[C@]12CN(C=O)C3[C@@H]4[C@H](OC)C1[C@]3(C1CC3(O)C(OC)C(O)C4(OC(C)=O)C1C3OC(=O)c1ccccc1)[C@@H](OC)C[C@H]2O (stereo partly drawn)", "TEST_RESULT": 0.995}
{"MOLECULE": "CN[C@@H]1C(OC2[C@H](O[C@H]3[C@H](O)[C@@H](O)[C@H](N=C(N)N)[C@@H](O)[C@@H]3N=C(N)N)OC(C)[C@]2(O)CO)OC(CO)C(O)C1O (stereo partly drawn)", "TEST_RESULT": 1}
{"MOLECULE": "O=C(O)C(O)C(O)C(=O)O (stereo not drawn)", "TEST_RESULT": 1.01}
{"MOLECULE": "COC(=O)/C(C)=C\\CC12OC(C)(C)C3CC(C=C4C(=O)c5c(OC)c6c(c(CC=C(C)C)c5OC431)OC(C)(CCC=C(C)C)C=C6)C2=O (stereo not drawn)", "TEST_RESULT": 0.993}

Exercise: Find the recorded normalized growth belonging to `Cc1ccc(C(=O)c2ccc(CC(=O)O)n2C)cc1` and report it.
Key: 0.994

====

Kindly state normalized growth for each of the entries shown.
Test: chemical genetic growth profiling, strain panel (AID 1159580);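 further: tested at 20 µM; growth read once vehicle control cultures reached saturation at 30 °C; 1 = growth at the plate median or of vehicle wells; lower values mean less growth of the strain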
Details: S. cerevisiae deletion strains, growth OD, locus YHR027C, strain rpn1, hits give low values
The campaign covered roughly 5,500 compounds. About 2,000 (36%) were called active. About 18% were inconclusive and are not listed. The list shows a part of the results.
One number for each entry.

{"COMPOUND": "Cc1cccc(C)c1NC(=O)C1CCCCN1C (stereo unspecified)", "TEST_RESULT": 0.986}
{"COMPOUND": "O=C(O)COc1ccc(Cl)cc1Cl", "TEST_RESULT": 0.994}
{"COMPOUND": "CC(=O)O[C@@H]1CC2C(C)(C)C(=O)C3OC3[C@]2(C)C2CC[C@@]3(C)[C@H](c4ccoc4)OC(=O)C4OC43[C@@]21C (stereo partly specified)", "TEST_RESULT": 0.978}
{"COMPOUND": "c1ccc2c(CC3=NCCN3)cccc2c1", "TEST_RESULT": 0.972}
{"COMPOUND": "CC(=O)O[C@@H]1CC2C(C)(C)[C@H](O)C=C[C@]2(C)C2CC[C@@]3(C)[C@H](c4ccoc4)OC(=O)C4OC43[C@@]21C (stereo partly specified)", "TEST_RESULT": 1.02}

List normalized growth for every entry below, keeping the order given.
1. Cc1cc(CC(=O)O)n(C)c1C(=O)c1ccc(Cl)cc1
2. O=C(O)C1CCCNC1 (stereo unspecified)
3. NC(=O)NC1NC(=O)NC1=O (stereo unspecified)
4. O=C1CCCN1CC#CCN1CCCC1
5. Clc1ccccc1CN1CCc2sccc2C1
6. CC(=O)O[C@@H]1CC2C(C)(C)[C@H](O)CC[C@]2(C)C2CC[C@@]3(C)[C@H](c4ccoc4)OC(=O)C4OC43[C@@]21C (stereo partly specified)
7. Cc1ccc(C(=O)c2ccc(CC(=O)O)n2C)cc1

Key:
1. 1.02
2. 1.01
3. 1
4. 1.02
5. 1.01
6. 1.01
7. 1.01

List normalized growth for every entry below, keeping the order given.
1. COC(=O)[C@H](c1ccccc1Cl)N1CCc2sccc2C1
2. CN(C)C(=O)Oc1ccc[n+](C)c1
3. NC1(C(=O)O)CCCC1
4. COC(=O)/C(C)=C\CC12OC(C)(C)C3CC(C=C4C(=O)c5c(OC)c6c(c(CC=C(C)C)c5OC431)OC(C)(CCC=C(C)C)C=C6)C2=O (stereo unspecified)

Key:
0.987
1.01
1.01
1.02

====

Test: chemical genetic growth profiling, strain panel (AID 1159580);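 further: tested at 20 µM; growth read once vehicle control cultures reached saturation at 30 °C; 1 = growth at the plate median or of vehicle wells; lower values mean less growth of the strain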
Details: S. cerevisiae deletion strains, growth OD, locus YPR025C, strain CCL1, hits give low values
The whole screen tested about 5,500 compounds, of which about 2,000 (36%) were called active. About 18% were inconclusive and are not listed. Some of the results follow.
MEASURED_QUANTITY: normalized growth

Example results:
{"MOLECULE": "Cc1ccc(NC(=S)C(C#N)C(=O)N2CCOCC2)c(C)c1 (stereo not given)", "normalized growth": "0.997 (inactive)"}
{"MOLECULE": "Clc1cc(Cl)cc(C=NCc2ccccc2)c1", "normalized growth": "0.953 (inactive)"}
{"MOLECULE": "O=C(Oc1ccc2ccccc2c1C1SCCS1)c1ccc([N+](=O)[O-])o1", "normalized growth": "0.961 (inactive)"}
{"MOLECULE": "Nc1ccccc1C(=O)Nc1cc(C(F)(F)F)cc(C(F)(F)F)c1", "normalized growth": "0.985 (inactive)"}
{"MOLECULE": "CC1=CC(=O)N(c2ccc(OC(F)(F)F)cc2)C1=O", "normalized growth": "0.855 (active)"}
{"MOLECULE": "O=[N+]([O-])c1ccsc1Oc1cccc(C(F)(F)F)c1", "normalized growth": "0.98 (inactive)"}
{"MOLECULE": "CC1=CC(=O)N(c2ccc(F)c(Cl)c2)C1=O", "normalized growth": "0.97 (inactive)"}
{"MOLECULE": "O=S(=O)(NCc1ccc(C(F)(F)F)cc1)c1cccc(C(F)(F)F)c1", "normalized growth": "0.981 (inactive)"}

List normalized growth for every entry below, keeping the order given.
1. O=C(Nc1ccncc1)c1cc(-c2ccccc2)oc1C(F)(F)F
2. FC(F)(F)c1cc(NC(=S)SCCSC(=S)Nc2cc(C(F)(F)F)cc(C(F)(F)F)c2)cc(C(F)(F)F)c1

Key:
1. 0.99 (inactive)
2. 0.999 (inactive)
